MEASUREMENT_TARGET: Poly [ADP-ribose] polymerase 1 (Homo sapiens)
Sequence (P09874 whole entry): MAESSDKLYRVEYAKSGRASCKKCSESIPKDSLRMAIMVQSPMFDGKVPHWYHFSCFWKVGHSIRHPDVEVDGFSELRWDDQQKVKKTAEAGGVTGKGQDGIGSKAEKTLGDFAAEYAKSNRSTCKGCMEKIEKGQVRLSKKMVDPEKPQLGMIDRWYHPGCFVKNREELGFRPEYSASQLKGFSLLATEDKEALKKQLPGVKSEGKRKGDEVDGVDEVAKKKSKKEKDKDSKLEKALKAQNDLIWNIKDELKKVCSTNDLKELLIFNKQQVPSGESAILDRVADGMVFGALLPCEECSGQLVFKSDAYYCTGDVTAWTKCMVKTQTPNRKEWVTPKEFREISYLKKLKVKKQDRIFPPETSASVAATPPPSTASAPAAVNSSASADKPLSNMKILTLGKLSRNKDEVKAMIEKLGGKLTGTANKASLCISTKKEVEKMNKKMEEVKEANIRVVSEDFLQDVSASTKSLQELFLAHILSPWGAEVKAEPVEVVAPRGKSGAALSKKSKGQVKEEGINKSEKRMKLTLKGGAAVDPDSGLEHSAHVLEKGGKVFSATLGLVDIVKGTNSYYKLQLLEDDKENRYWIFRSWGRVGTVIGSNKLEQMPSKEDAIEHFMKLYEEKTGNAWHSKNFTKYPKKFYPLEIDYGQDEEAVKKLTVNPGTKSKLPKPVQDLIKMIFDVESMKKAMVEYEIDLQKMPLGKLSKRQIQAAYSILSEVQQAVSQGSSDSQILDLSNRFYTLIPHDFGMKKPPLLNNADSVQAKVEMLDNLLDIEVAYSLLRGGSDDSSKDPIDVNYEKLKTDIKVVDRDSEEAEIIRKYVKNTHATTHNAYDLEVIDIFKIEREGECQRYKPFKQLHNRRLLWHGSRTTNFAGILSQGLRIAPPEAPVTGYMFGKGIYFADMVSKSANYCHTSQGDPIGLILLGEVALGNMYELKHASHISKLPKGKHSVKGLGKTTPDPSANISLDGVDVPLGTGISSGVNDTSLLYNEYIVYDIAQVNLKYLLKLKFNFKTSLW
TEST_DESCRIPTION: Inhibition of human recombinant PARP1 in presence of NAD+ by ELISA
pIC50: −log10 of the molar value.
Note to self: values exactly at 7 are Condition met. So pIC50 at or above 7 is Condition met, below is Condition not met.

Examples from the recorded data:
Textbook exercise: given the entry C=C1C(=O)OC2C[C@@]3(C)CCC=C(COC(=O)C4CN(C(=O)c5cc(Cc6n[nH]c(=O)c7ccccc67)ccc5F)C4)C3=CC12 (stereo partly drawn) , state whether its pIC50 is greater than or equal to 7. Condition not met

Quick one: C[C@H]1CCC[C@]2(C)CC3OC(=O)C(CN(C)CCCC(=O)N4CCN(C(=O)c5cc(Cc6n[nH]c(=O)c7ccccc67)ccc5F)CC4)C3C=C12 (stereo partly drawn) Condition met

Quick one: C[C@H]1CCC[C@]2(C)CC3OC(=O)C(CNOCC(=O)N4CCN(C(=O)c5cc(Cc6n[nH]c(=O)c7ccccc67)ccc5F)CC4)C3C=C12 (stereo partly drawn) Condition met

Continuing:
Textbook exercise: given the entry C[C@H]1CCC[C@]2(C)CC3OC(=O)C(CNCCCC(=O)N4CCN(C(=O)c5cc(Cc6n[nH]c(=O)c7ccccc67)ccc5F)CC4)C3C=C12 (stereo partly drawn) , state whether its pIC50 is greater than or equal to 7. Condition met

Quick one: C[C@H]1CCC[C@]2(C)CC3OC(=O)C(CN(C)CC(=O)N4CCN(C(=O)c5cc(Cc6n[nH]c(=O)c7ccccc67)ccc5F)CC4)C3C=C12 (stereo partly drawn) Condition met

Quick one: C=C1C(=O)OC2C[C@@]3(C)CCC=C(COC(=O)c4cc(Cc5n[nH]c(=O)c6ccccc56)ccc4F)C3=CC12 (stereo partly drawn) Condition not met

Quick one: C[C@]12CCC=C(CO)C1=CC1C(C2)OC(=O)C1CNCCOCCOCC(=O)N1CCN(C(=O)c2cc(Cc3n[nH]c(=O)c4ccccc34)ccc2F)CC1 (stereo partly drawn) Condition met

Quick one: C[C@H]1CCC[C@]2(C)CC3OC(=O)C(CNCCCCCCCC(=O)N4CCN(C(=O)c5cc(Cc6n[nH]c(=O)c7ccccc67)ccc5F)CC4)C3C=C12 (stereo partly drawn) Condition met

---

Here the recorded pIC50 is given for each entry.
MEASUREMENT_TARGET: Poly [ADP-ribose] polymerase 1 (Homo sapiens)
TEST_DESCRIPTION: Inhibition of human recombinant PARP1 in presence of NAD+ by ELISA
// returns pIC50 (minus log10 of molar concentration), number only

Look over these answered cases.
Observed pIC50 on Poly [ADP-ribose] polymerase 1 (Homo sapiens) for C[C@]12CCC=C(C=O)C1=CC1C(C2)OC(=O)C1CNCCOCCOCC(=O)N1CCN(C(=O)c2cc(Cc3n[nH]c(=O)c4ccccc34)ccc2F)CC1 (some centres undefined) , please. 7.05

Quick one: C=C1C(=O)OC2C[C@@]3(C)CCC=C(COC(=O)CCNC(=O)c4cc(Cc5n[nH]c(=O)c6ccccc56)ccc4F)C3=CC12 (some centres undefined) 6.87

Quick one: C[C@]12CCC=C(CO)C1=CC1C(C2)OC(=O)C1CN1CCN(C(=O)c2cc(Cc3n[nH]c(=O)c4ccccc34)ccc2F)CC1 (some centres undefined) 7.02

// next entry
Observed pIC50 on Poly [ADP-ribose] polymerase 1 (Homo sapiens) for C[C@H]1CCC[C@]2(C)CC3OC(=O)C(CNCCOCCOCCOCC(=O)N4CCN(C(=O)c5cc(Cc6n[nH]c(=O)c7ccccc67)ccc5F)CC4)C3C=C12 (some centres undefined) , please. 7.13
